Test system: BDF1 mice, P388 leukemia ip, median survival T/C
Assay: NCI In Vivo Anticancer Drug Screen. Data for tumor model P388 Leukemia (intraperitoneal) in B6D2F1 (BDF1) mice
Conditions: endpoint: median survival time; dose: 100.0 mg/kg/injection; schedule: Q04DX002 (ip); vehicle: saline with Tween-80; higher = longer survival
Toxic doses and inconclusive results are not listed.
T/C by entry:

O=c1ccc2cc(-c3ccncc3)cnc2[nH]1; 108 % of control
CCC(c1ccccc1)C(C(=O)O)C(=O)O (configuration not stated); 110 % of control
Nc1ncccc1C1CCCS1 (configuration not stated); 98 % of control
CSC1C(=O)Nc2cccc(C#N)c21 (configuration not stated); 98 % of control
COC1(F)C2(Cl)C=C(c3ccccc3)C1(Cl)C(Cl)=C2Cl (configuration not stated); 101 % of control

Query :: Give its T/C value. Item: `CC(=O)CC(C)=O.CC(=O)CC(C)=O.Cc1c[nH]cn1.O=N[O-].[Co]`
Result :: 107 % of control

Query :: Which T/C value belongs to `O=C1OC(c2ccccc2)=N/C1=C\c1cccc(Br)c1` ?
Result :: 105 % of control

====

System: BDF1 mice, P388 leukemia ip, median survival T/C
Assay: NCI In Vivo Anticancer Drug Screen. Data for tumor model P388 Leukemia (intraperitoneal) in B6D2F1 (BDF1) mice
Conditions: endpoint: median survival time; dose: 200.0 mg/kg/injection; schedule: Q04DX003 (ip); vehicle: Klucel (hydroxypropylcellulose) (HPC); higher = longer survival
Inconclusive results and toxic doses are left out.
TEST_READOUT: T/C

Please review the entries below; each comes with its answer.
S; 100 % of control
O=[N+]([O-])c1cc([N+](=O)[O-])c2nn(-c3ccccc3)[n+]([O-])c2c1; 100 % of control
O=[N+]([O-])c1ccc(C(Br)C(Br)c2ccccc2Cl)cc1 (configuration not stated); 100 % of control
CCCCCCCCCCC[CH2][Hg][CH2]CCCCCCCCCCC; 100 % of control
CCC(=O)Nc1ccc(C)cc1C; 90 % of control
COC(=O)C/C(=C\c1ccc(OC)c(OC)c1)C(=O)OC; 100 % of control
Nc1nc(SN=Nc2ccc(S(=O)(=O)O)cc2)c2[nH]cnc2n1; 116 % of control
Cc1cc(=O)[nH]c(N/N=C2/CCCCC2C)n1 (configuration not stated); 95 % of control

Query :: Query: T/C; subject: `Cc1cc(N(CCCl)CCCl)ccc1C=NC1CCCC1`
Result :: 108 % of control

Query :: Returns the measured T/C for the input molecule. Input: `Cc1cc(=O)[nH]c(N/N=C/C(C)C)n1`
Result :: 88 % of control

Query :: Which T/C reading was recorded for the molecule Cc1ccc(C(CCC#N)OC(C)C)cc1 (configuration not stated) ?
Result :: 109 % of control

Query :: Which T/C value is on record for `O=C(Nc1ccc2ncccc2c1)Nc1ccc2ncccc2c1` ?
Result :: 91 % of control

====

Test system: BDF1 mice, P388 leukemia ip, median survival T/C
Assay: NCI In Vivo Anticancer Drug Screen. Data for tumor model P388 Leukemia (intraperitoneal) in B6D2F1 (BDF1) mice
Conditions: endpoint: median survival time; dose: 6.25 mg/kg/injection; schedule: Q01DX009 (ip); vehicle: saline
Inconclusive results and toxic doses are left out. How the source made its calls: active means survival T/C of 150% or more; inactive means T/C below 125% in these data.
Mark one answer only. Choices: active, inactive

For orientation, consider the following solved cases.
CC1CN1CC(O)C(O)CN1CC1C (stereo not given); inactive
CCC(=N\NC(=S)NCCN(CC)CC)/C(C)=N/NC(=S)NCCN(CC)CC; inactive
Nc1cc(NC(=O)c2ccc(Cl)cc2)ccc1S(=O)(=O)O; inactive
Clc1ccc2c(c1)N(CCCN1CCCC13CCCCC3)c1ccccc1S2; inactive
CC(=O)c1ccc(Oc2ccc(/C(C)=N\N=C(N)N)cc2)cc1; inactive
CCOC(=O)Nc1cc(NC(C)CCCN(CC)CC)c2ncc(-c3ccc(Cl)c(Cl)c3)nc2n1 (stereo not given) (tested in a mixture with another compound); inactive

Query :: Given `COc1cc(N(CCCl)CCCl)c(OC)cc1/C=N\Nc1nncn1N` , state the outcome it received in this test.
Result :: active

Query :: // outcome(item) with item = O=C1C=CC(=O)O1 (tested in a mixture with another compound)
Result :: inactive

Query :: Outcome logged for `CCN(CC)CCNC(=S)N/N=C(C)\C(C)=N/NC(=S)NCCN(CC)CC` in this assay:
Result :: inactive

Query :: What classification did `CC(=N\[O-])/C(C)=N/O.CC(=N\[O-])/C(C)=N/O.CCCN.[Cl-].[Cl-].[Rh+3]` end up with in this test?
Result :: inactive
